target of assay: T1, FAM91A1^N (N terminus of FAM91A1, residues 1-328), wild type (UniProt Q658Y4 1-328)
T1 sequence (looked up): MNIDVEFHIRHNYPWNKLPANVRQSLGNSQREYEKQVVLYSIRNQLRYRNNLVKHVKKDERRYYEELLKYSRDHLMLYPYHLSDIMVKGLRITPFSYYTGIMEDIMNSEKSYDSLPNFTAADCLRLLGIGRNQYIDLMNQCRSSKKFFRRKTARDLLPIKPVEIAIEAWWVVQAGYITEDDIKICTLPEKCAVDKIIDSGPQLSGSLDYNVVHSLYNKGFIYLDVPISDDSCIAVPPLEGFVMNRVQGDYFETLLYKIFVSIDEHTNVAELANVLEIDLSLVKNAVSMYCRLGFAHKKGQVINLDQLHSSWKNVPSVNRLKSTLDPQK
assay summary: ITC
assay endpoint: Kd (nM)
Answers are plain numbers, in nM.

Req: Please give the documented Kd of TPVDRHVSSSDRVGKPYRGVKPVFS (peptide, UniProt Q9NUY8-2 514-538, looked up) [TBC1D23^514-538 wild type]
Resp: 1150
